These measurements were taken from BindingDB's records for doi:10.1016/0960-894X(95)00473-7.

Biological target: 5-hydroxytryptamine receptor 1D (Bos taurus)
Assay: Ability to bind to 5-hydroxytryptamine 1D receptor of calf substantia nigra
Each entry below lists one item and its recorded IC50 value.

// solved cases for IC50 follow
[
  {
    "COMPOUND": "c1ccc2c(c1)CCC(CNCCCNc1cnccn1)O2 (stereo not given)",
    "RESULT": "10 nM"
  },
  {
    "COMPOUND": "c1ccc2c(c1)CC(CNCCCNC1=NCCCN1)O2 (stereo not given)",
    "RESULT": "126 nM"
  },
  {
    "COMPOUND": "c1ccc2c(c1)CCC(CNCCCNc1nccs1)O2 (stereo not given)",
    "RESULT": "7.9 nM"
  },
  {
    "COMPOUND": "c1ccc2c(c1)CCC(CNCCCNC1=NCCCN1)C2 (stereo not given)",
    "RESULT": "40 nM"
  },
  {
    "COMPOUND": "COc1cccc2c1OC(CNCCCNC1=NCCCN1)CC2 (stereo not given)",
    "RESULT": "0.794 nM"
  }
]

IN: What is its IC50 for 5-hydroxytryptamine receptor 1D (Bos taurus)? Entry: COc1ccc2c(c1)OC(CNCCCNC1=NCCCN1)CC2 (stereo not given)
OUT: 3.2 nM

IN: Under 5-hydroxytryptamine receptor 1D (Bos taurus): IC50 value of c1ccc2c(c1)CCC(CNCCCNC1=NCCCC1)O2 (stereo not given) ?
OUT: 4 nM
